- System: U2OS
- methodNotes: cell viability relative to DMSO; higher = less toxic
- conditions: 72 h; 100 nM
Give cell viability for every item shown.
// units = %; emit number, no label

Data request, read-out cell viability, for `C[C@@H]1CN(CC(=O)Nc2ccc3c(c2)Cc2cccc(-c4cc(=O)cc(N5CCOCC5)o4)c2S3)C[C@H](C)O1`
95.7

Can you check `COc1ccc(O)cc1` next?
96.8

Can you check `Cc1cc(N2CCN([C@@H]3CN[C@H](C(=O)N4CCSC4)C3)CC2)n(-c2ccccc2)n1` next?
99.5

Can you check `CS(=O)(=O)c1ccc(-c2cnc(NCc3ccco3)n3cnnc23)cc1` next?
98.5

Can you check `N#Cc1ccc2[nH]cc(CCCCN3CCN(c4ccc5oc(C(N)=O)cc5c4)CC3)c2c1` next?
97.7

====

Give drug sensitivity score for every item shown.
- System: Caco-2
- methodNotes: drug sensitivity score (DSS) for viability; higher = more toxic; extreme values may be limits of the assay
- conditions: 72 h
Please give only the number in your answer, with no unit.

Data request, read-out drug sensitivity score, for `O=C1C(=C(O)/C=C/c2ccc(O)cc2)C(=O)[C@@](O)([C@@H]2O[C@H](CO)[C@@H](O)[C@H](O)[C@H]2O)C(=O)[C@H]1[C@@H]1O[C@H](CO)[C@@H](O)[C@H](O)[C@H]1O`
0

Can you check `COC1=C[C@@H]2[C@@H]3Cc4ccc(OC)c(O)c4[C@]2(CCN3C)CC1=O` next?
0

Can you check O=C(O)c1ccc(NC(=O)[C@H](Cc2ccc(O)cc2)NC(=O)c2ccccc2)cc1 [bentiromide] next?
0

Can you check `CC(C)N(CCc1c[nH]c2ccccc12)C(C)C` next?
0

Can you check `CCC(CC)n1ccc2c(C(=O)NCc3c(C)cc(C)[nH]c3=O)cc(C#N)cc21` next?
0

Can you check `CCCCc1nc(C)c(CC(=S)N(C)C)c(=O)n1Cc1ccc(-c2ccccc2-c2nnn[nH]2)cc1` next?
0

Can you check `C[n+]1cccc(C(=O)[O-])c1` next?
0

Can you check `O=C(Nc1ccccc1C(=O)Nc1ccc(CCO)cc1)c1ccc([N+](=O)[O-])cc1` next?
0

====

- System: Caco-2
- methodNotes: drug sensitivity score (DSS) for viability; higher = more toxic; extreme values may be limits of the assay
- conditions: 72 h
valueKind: drug sensitivity score
Please give only the number in your answer, with no unit.

Data request, read-out drug sensitivity score, for `CC[N+](CC)(CC)CC(=O)Nc1c(C)cccc1C`
0

Can you check CCCC(C)NC(=O)c1ccc(Cl)c(Cl)c1 (stereo not drawn) next?
0

Can you check `N=C(N)NCCC[C@H](N)C(=O)O` next?
0

Can you check `O=C(O)CCc1ccc(NCc2cccc3c2CCCN3CCOc2ccccc2)cc1F` next?
0

Can you check `O=C(/C=C/c1ccc(CN(CCO)CCc2c[nH]c3ccccc23)cc1)NO` next?
25.2

Can you check `O=C(/C=C/c1cccnc1)c1ccncc1` next?
1.8

Can you check `CC(=O)Nc1ccc(NC(=S)NC(=O)c2ccc(C(C)(C)C)cc2)cc1` next?
0

Can you check Cc1cccc(C)c1NC(=O)C1CCCCN1C (stereo not drawn) [mepivacaine] next?
0

Can you check `CC1(C)Oc2ccc(C#N)cc2[C@@H](N2CCCC2=O)[C@@H]1O` next?
0

Can you check `N#Cc1ccccc1-c1cc(-c2ccccn2)cn(-c2ccccc2)c1=O` next?
0

Can you check `OC(CCCN1CCCCC1)(c1ccccc1)c1ccccc1` next?
0

Can you check CCNC(C)CN1CCc2c(c(=O)oc3ccccc23)C1 (stereo not drawn) next?
0

Can you check `CCCCCCCCC(=O)N[C@H](CN1CCCC1)[C@H](O)c1ccc2c(c1)OCCO2` next?
0

Can you check `O=C1Nc2cc(Cl)c(Cl)cc2N2CCNC[C@H]12` next?
0.7

Can you check `C=CCNc1c(O)cc2c(O)c1C[C@@H](C)C[C@H](OC)[C@H](O)[C@@H](C)/C=C(\C)[C@H](OC(N)=O)[C@@H](OC)/C=C\C=C(/C)C(=O)N2` next?
8.8

Can you check `O=C(O)/C=C/c1ccc(O)c(O)c1` next?
0

Can you check `CN(C)c1ccc2c(c1)Sc1cc(N(C)C)ccc1N2` next?
5.2

Can you check `NCCS(=O)(=O)O` next?
0

Can you check CCCc1cc(C(N)=S)ccn1 [protionamide] next?
5.7

Can you check `CCCCCCC(=O)OC1CC(C)(C)NC(C)(C)C1` next?
0

Can you check CN1CCc2c(c3ccccc3n2Cc2ccccc2)C1 [mebhydrolin] next?
0

Can you check `O=C(Nc1ccc(CN2CCOCC2)cc1)c1ccc(-c2cccc(Cl)c2)o1` next?
0

Can you check `COc1nc(N)nc2c1ncn2[C@@H]1O[C@H](CO)[C@@H](O)[C@@H]1O` next?
0

====

- Tested on: HepG2
- methodNotes: relative viability EC50 (midpoint between 100% and the lowest measured viability); higher = less toxic
- conditions: 72 h
valueKind: relative viability EC50

Data request, read-out relative viability EC50, for CCCCCCCCC(=O)NCc1cc(OC)c(O)cc1I [6-iodo-nordihydrocapsaicin]
> 10 µM

Can you check `O=C(COc1ccc(C(=O)c2ccccc2)cc1)NC1CCN(Cc2ccccc2)CC1` next?
> 10 µM

Can you check `C[n+]1cccc(C(=O)[O-])c1` next?
> 10 µM

Can you check O[C@@H](CN1CCC(Cc2ccc(F)cc2)CC1)c1ccc(Cl)cc1 (racemic) next?
> 10 µM

Can you check O=C1CCC[C@@H]2[C@H]3CCC[N+]4([O-])CCC[C@@H](CN12)[C@@H]34 (some centres not stated) next?
> 10 µM

Can you check `CC(=O)OCC(CCn1cnc2cnc(N)nc21)COC(C)=O` next?
> 10 µM

Can you check `N=C(N)NCCC[C@H](N)C(=O)O` next?
> 10 µM

Can you check `CS(=O)(=O)OCOS(C)(=O)=O` next?
> 10 µM

Can you check `NC(=O)CN1CC[C@@H](NC(=O)[C@@H]2CCCN2)C1=O` next?
> 10 µM

Can you check NS(=O)(=O)c1cc(Cl)c(Cl)c(S(N)(=O)=O)c1 [diclofenamide] next?
> 10 µM

Can you check `C=CCNc1c(O)cc2c(O)c1C[C@@H](C)C[C@H](OC)[C@H](O)[C@@H](C)/C=C(\C)[C@H](OC(N)=O)[C@@H](OC)/C=C\C=C(/C)C(=O)N2` next?
0.0315 µM

Can you check `CCC/N=C1\S/C(=C\c2ccc(OC[C@H](O)CO)c(Cl)c2)C(=O)N1c1ccccc1C` next?
> 10 µM

Can you check `CC[N+](CC)(CC)CC(=O)Nc1c(C)cccc1C` next?
> 10 µM

Can you check `CCCCCCCCCCCCC[N+](C)(C)Cc1ccccc1` next?
3.95 µM

Can you check `COc1ccc([C@@H]2CC(=O)c3c(O)cc(O[C@@H]4O[C@H](CO)[C@@H](O)[C@H](O)[C@H]4O[C@@H]4O[C@@H](C)[C@H](O)[C@@H](O)[C@H]4O)cc3O2)cc1O` next?
> 10 µM

Can you check `COc1ccc(-c2ccc3ncc4c(c3c2)n(-c2ccc(N3CCNCC3)c(C(F)(F)F)c2)c(=O)n4C)cn1` next?
0.107 µM

Can you check `CC[N+](C)(CC)CCOC(=O)C1c2ccccc2Oc2ccccc21` next?
> 10 µM

====

- Tested on: Vero E6
- methodNotes: cell viability relative to DMSO; higher = less toxic
- conditions: 72 h; 1 nM
valueKind: cell viability (%)
// units = %; emit number, no label

Data request, read-out cell viability, for `COc1cc(/C=C2\CCC/C(=C\c3ccc(O)c(OC)c3)C2=O)ccc1O`
103

Can you check `CN1CCN(c2cccc(Nc3nc4c(-c5ccc(S(C)(=O)=O)cc5)cccn4n3)c2)CC1` next?
96.4

Can you check `COc1cccc([C@@H](C)NCCCc2ccccc2Cl)c1` next?
108

Can you check `NCC(=O)CCC(=O)O` next?
93.7

Can you check `Nc1nc2ccc(OC(F)(F)F)cc2s1` next?
93.4

Can you check `O=C(/C=C/c1ccc(O)c(O)c1)c1ccc(O)cc1O` next?
103

Can you check `COc1ccc([C@@H]2CC(=O)c3c(O)cc(O[C@@H]4O[C@H](CO)[C@@H](O)[C@H](O)[C@H]4O[C@@H]4O[C@@H](C)[C@H](O)[C@@H](O)[C@H]4O)cc3O2)cc1O` next?
98.2

Can you check `COc1cc2c(c(OC)c1OC)-c1c(cc3c(c1OC)OCO3)C[C@H](C)[C@@](C)(O)C2` next?
102

Can you check `O=S(=O)(O)c1ccc2[nH]c(-c3ccccc3)nc2c1` next?
96.3

Can you check `C[C@H](Nc1cc2c(-c3ccc4c(c3)OCO4)noc2cn1)c1ccccc1` next?
97.4

Can you check `C[C@@H]1C/C=C/C=C/C=C/C=C/[C@H](O[C@@H]2O[C@H](C)[C@@H](O)[C@H](N)[C@@H]2O)C[C@@H]2O[C@](O)(C[C@@H](O)C[C@H]3O[C@@H]3/C=C/C(=O)O1)C[C@H](O)[C@H]2C(=O)O` next?
95.7

Can you check NC(=O)NO [hydroxyurea] next?
95.6

Can you check `N#Cc1ccc2[nH]cc(CCCCN3CCN(c4ccc5oc(C(N)=O)cc5c4)CC3)c2c1` next?
92.7

Can you check `Oc1c(I)cc(I)cc1I` next?
96.8

Can you check `N=C(N)SCCc1ccc(OCc2ccc([N+](=O)[O-])cc2)cc1` next?
99.7

Can you check `NCCc1c[nH]cn1` next?
99.4

Can you check `COc1cc(NC(=O)c2ccccn2)ccc1Cl` next?
101

Can you check N#Cc1c(N(CC(=O)O)CC(=O)O)sc(C(=O)O)c1CC(=O)O [Strontium Ranelate] next?
96.7
